All values here come from paper PMC9490236.

- particulars: PAMPA
Where a SMILES comes first, the peptide text is derived from it. [ ]: non-standard residue; d: D form. dNMeL = CN[C@H](CC(C)C)C(=O)O
value kind: PAMPA_R1

Query: PAMPA_R1; subject: CC[C@@H](C)[C@H]1NC(=O)[C@H](CC(C)C)N(C)C(=O)[C@H]2CCCN2C(=O)[C@H](CC(C)C)NC(=O)[C@H](Cc2ccccc2)N(C)C(=O)CN(C)C(=O)[C@@H](C(C)C)NC(=O)[C@H](C)NC(=O)[C@H]2CCCN2C(=O)[C@@H]2CCCN2C1=O (single isomer, unassigned) [Design D10.58.p2]
3.15E-07

Query: PAMPA_R1; subject: CC(C)C[C@@H]1NC(=O)[C@@H](CC(C)C)NC(=O)[C@H]2CCCN2C(=O)[C@@H]2CCCN2C(=O)[C@@H](CC(C)C)NC(=O)[C@@H](CC(C)C)N(C)C(=O)[C@@H]2CCCN2C1=O [Design D7.5, LEU PRO *DLEU DLEU PRO DPRO DLEU] (cyclo(LP[dNMeL][dL]P[dP][dL]))
6.72e-06 cm/s
